Target: human ether-à-go-go-related gene (hERG) potassium channel (human);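 also: peak tail current of the secondary pulse compared with the same well before compound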
Assay: primary screen, population patch clamp on CHO cells stably expressing hERG; higher = less effect of the substance
Description: Briefly, Chinese hamster ovary (CHO) cells stably expressing the hERG channel were dislodged from tissue culture flasks and dispensed into PPC plates. […] During the recording, background leak currents were estimated by a 100 ms step to -80 mV from an initial holding potential of -70 mV and subtracted from the subsequent current measurement. The campaign was conducted in two phases using slight differences in recording protocol. […]
In all, about 310,000 compounds went through this assay and about 14,000 (4.5%) showed an effect of 50% or more. The effect is printed as a negative number. The list comes from a sample in which strong results are over-represented; it also holds close analogues and randomly drawn compounds.
The following compounds are listed with their measured hERG current change (%, negative = inhibition) at 10uM values.
Answer in %, number only, no unit symbol.

In the examples that follow, each entry is paired with its recorded hERG current change (%, negative = inhibition) at 10uM.
compound	quantitative.readout
COc1cc(OC)c(C(=O)NNC(=S)NC2CCCCC2)cc1OC	16.6
CCOS(=O)(=O)[O-].CC[n+]1c(/C=C/Nc2ccccc2)oc2ccc(OC)cc21	-77.2
COc1ccccc1CNC(=O)c1cc(-c2ccccc2C)nn1CC1CC(c2cccnc2)=NO1 (centres unmarked)	-2.89
COc1ccc(NS(=O)(=O)c2cccc3cccnc23)cc1OC	24.2
CCOC(=O)c1c(C)[nH]c(C(=O)OCc2ccc(F)cc2)c1C	-0.855

# get_value(readout='hERG current change (%, negative = inhibition) at 10uM', item= CCN(CC)C(=O)c1ccc(NC(=O)c2ccc(N3CCCC3=O)cc2)cc1 ) 5.47

# repeat for CC[n+]1ccccc1/C=C/Nc1ccccc1.[I-] -44.7

# repeat for CCOc1cc(/C=C/C(=O)c2ccc(OC)c(CN3CCOCC3)c2)cc(Br)c1O -32.5

# repeat for O=C(CCC(=O)OCc1ccc(Br)cc1)Nc1ccccc1 8.45

# repeat for CC[n+]1c(/C=C/Nc2ccccc2)oc2ccccc21.[I-] -70.4

# repeat for O=C(NCC1CC1)c1cc(-c2ccccc2)nn1CC1CC(c2cccnc2)=NO1 (centres unmarked) -25

# repeat for CCN1/C(=C/C=C/c2oc3ccc(-c4ccccc4)cc3[n+]2CC)Oc2ccc(-c3ccccc3)cc21.CCOS(=O)(=O)[O-] -2.14

# repeat for CCOc1ccc(S(=O)(=O)Nc2cccc(OC)c2)cc1 -25

# repeat for Cc1ccccc1-c1cc(C(=O)NCc2ccco2)n(CC2CC(c3cccnc3)=NO2)n1 (centres unmarked) -15.6

###

Target: human ether-à-go-go-related gene (hERG) potassium channel (human, UniProt Q12809);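 also: peak tail current of the secondary pulse compared with the same well before compound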
Sequence (Q12809 whole entry, looked up): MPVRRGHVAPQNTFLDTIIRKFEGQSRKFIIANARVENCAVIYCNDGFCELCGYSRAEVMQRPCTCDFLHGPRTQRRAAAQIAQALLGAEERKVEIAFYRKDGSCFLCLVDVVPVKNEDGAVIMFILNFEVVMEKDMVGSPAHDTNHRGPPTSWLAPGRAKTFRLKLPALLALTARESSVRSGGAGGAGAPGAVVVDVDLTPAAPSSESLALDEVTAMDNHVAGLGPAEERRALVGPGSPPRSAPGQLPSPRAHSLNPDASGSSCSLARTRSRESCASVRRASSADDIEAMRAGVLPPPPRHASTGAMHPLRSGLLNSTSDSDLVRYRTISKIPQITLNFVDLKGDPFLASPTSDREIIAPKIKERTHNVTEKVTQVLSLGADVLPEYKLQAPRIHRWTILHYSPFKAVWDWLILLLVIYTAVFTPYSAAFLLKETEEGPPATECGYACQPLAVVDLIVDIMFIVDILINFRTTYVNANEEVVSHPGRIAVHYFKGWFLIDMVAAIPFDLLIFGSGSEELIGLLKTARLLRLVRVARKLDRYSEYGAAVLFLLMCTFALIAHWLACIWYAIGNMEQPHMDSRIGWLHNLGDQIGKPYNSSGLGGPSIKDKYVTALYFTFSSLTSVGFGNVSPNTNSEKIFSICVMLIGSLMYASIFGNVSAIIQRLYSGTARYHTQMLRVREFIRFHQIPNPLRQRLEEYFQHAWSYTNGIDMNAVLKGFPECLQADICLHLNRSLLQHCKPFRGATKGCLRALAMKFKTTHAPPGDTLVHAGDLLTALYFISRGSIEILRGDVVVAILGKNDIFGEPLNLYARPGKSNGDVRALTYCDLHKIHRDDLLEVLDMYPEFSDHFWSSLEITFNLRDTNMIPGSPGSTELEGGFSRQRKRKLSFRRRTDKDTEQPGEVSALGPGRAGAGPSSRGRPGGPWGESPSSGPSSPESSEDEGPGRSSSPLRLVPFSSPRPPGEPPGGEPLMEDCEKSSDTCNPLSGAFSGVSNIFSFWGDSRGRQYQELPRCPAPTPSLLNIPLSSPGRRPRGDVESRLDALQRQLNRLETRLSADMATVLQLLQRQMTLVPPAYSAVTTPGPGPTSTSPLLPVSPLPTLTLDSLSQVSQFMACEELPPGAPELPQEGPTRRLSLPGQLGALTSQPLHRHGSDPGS
Assay: primary screen, population patch clamp on CHO cells stably expressing hERG; higher = less effect of the substance
Among all 310,000 compounds or so, about 14,000 (4.5%) showed an effect of 50% or more. Effects have a minus sign here. Many of the other results were omitted from the sample, so strong results are more common in it than they were.
result.type: hERG current change (%, negative = inhibition) at 10uM (%)
Answer in %, number only, no unit symbol.

# get_value(readout='hERG current change (%, negative = inhibition) at 10uM', item= CCOC(=O)C(C)Sc1nc2c(c(=O)[nH]c(=O)n2C)n1Cc1ccc(Cl)cc1 (stereo not drawn) ) -75

# repeat for CCN1CCCC1CNC(=O)c1cc2c(C)nc3ccccc3c2o1 (stereo not drawn) -12

# repeat for CCOC(=O)C(C)Sc1nc2c(c(=O)[nH]c(=O)n2C)n1CCc1ccccc1 (stereo not drawn) -49.8

# repeat for O=S(=O)(c1ccc(F)cc1)N1CCN(c2nc(-c3ccc(F)cc3)cs2)CC1 -8.44
